# test name: in vivo
# condition description: rabbit, blood
endpoint: concentration at 0.25 h (ng/mL)

sample_smiles=O=C1CN(N=CC=Cc2ccc([N+](=O)[O-])o2)C(=O)N1 test_result=2800

###

# test name: in vivo
# condition description: rabbit, urine, 50 mg/kg
endpoint: Cmax (µg/mL)

sample_smiles=O=C1CN(N=Cc2ccc([N+](=O)[O-])o2)C(=O)N1 measurement_units=µg/mL test_result=610

###

# test name: in vivo
# condition description: rabbit, urine, 50 mg/kg
endpoint: Tmax (h)

molecule="O=C1CN(N=Cc2ccc([N+](=O)[O-])o2)C(=O)N1 [Nitrofurantoin, 1-(5'-nitrofurfurylideneamino)-hydantoin]" endpoint=Tmax measurement_units=h test_result=1

Numbers sourced from patent US4500516A.
